The measured values listed here are drawn from patent US12551482B2.

# System: CP50-MEL-B
# ASSAY NAME: Cancer cell line profiling, Genomics of Drug Sensitivity Project
# EXPERIMENTAL PARAMETERS: read-out: CD532 EC50 (uM)
ASSAY READOUT: EC50 (µM)
Express it in µM; write the number only.

Please look up its EC50: O=C(Nc1ccc(Nc2nccc(Nc3cc(C4CCCC4)[nH]n3)n2)cc1)Nc1cccc(C(F)(F)F)c1 [CD532]
0.323

* * *

# Test system: DJM-1
# ASSAY NAME: Cancer cell line profiling, Genomics of Drug Sensitivity Project
# EXPERIMENTAL PARAMETERS: read-out: CD532 EC50 (uM)
ASSAY READOUT: EC50 (µM)
Express it in µM; write the number only.

Please look up its EC50: O=C(Nc1ccc(Nc2nccc(Nc3cc(C4CCCC4)[nH]n3)n2)cc1)Nc1cccc(C(F)(F)F)c1 [CD532]
0.427

* * *

# Test system: KP-N-YS
# ASSAY NAME: Cancer cell line profiling, Genomics of Drug Sensitivity Project
# EXPERIMENTAL PARAMETERS: read-out: CD532 EC50 (uM)
ASSAY READOUT: EC50 (µM)
Express it in µM; write the number only.

Please look up its EC50: O=C(Nc1ccc(Nc2nccc(Nc3cc(C4CCCC4)[nH]n3)n2)cc1)Nc1cccc(C(F)(F)F)c1 [CD532]
0.27

* * *

# System: MEL-HO
# ASSAY NAME: Cancer cell line profiling, Genomics of Drug Sensitivity Project
# EXPERIMENTAL PARAMETERS: read-out: CD532 EC50 (uM)
ASSAY READOUT: EC50 (µM)
Express it in µM; write the number only.

Please look up its EC50: O=C(Nc1ccc(Nc2nccc(Nc3cc(C4CCCC4)[nH]n3)n2)cc1)Nc1cccc(C(F)(F)F)c1
0.411

* * *

# Tested on: LB996-RCC
# ASSAY NAME: Cancer cell line profiling, Genomics of Drug Sensitivity Project
# EXPERIMENTAL PARAMETERS: read-out: CD532 EC50 (uM)
ASSAY READOUT: EC50 (µM)
Express it in µM; write the number only.

Please look up its EC50: O=C(Nc1ccc(Nc2nccc(Nc3cc(C4CCCC4)[nH]n3)n2)cc1)Nc1cccc(C(F)(F)F)c1
2.08

* * *

# System: NCI-N87
# ASSAY NAME: Cancer cell line profiling, Genomics of Drug Sensitivity Project
# EXPERIMENTAL PARAMETERS: Homo sapiens, NCI-N87, read-out: CD532 EC50 (uM)
ASSAY READOUT: EC50 (µM)
Express it in µM; write the number only.

Could you share what EC50 was measured for O=C(Nc1ccc(Nc2nccc(Nc3cc(C4CCCC4)[nH]n3)n2)cc1)Nc1cccc(C(F)(F)F)c1 , tested on NCI-N87?
10.9

* * *

# System: SK-MEL-1
# ASSAY NAME: Cancer cell line profiling, Genomics of Drug Sensitivity Project
# EXPERIMENTAL PARAMETERS: Homo sapiens, SK-MEL-1, read-out: CD532 EC50 (uM)
ASSAY READOUT: EC50 (µM)
Express it in µM; write the number only.

Could you share what EC50 was measured for O=C(Nc1ccc(Nc2nccc(Nc3cc(C4CCCC4)[nH]n3)n2)cc1)Nc1cccc(C(F)(F)F)c1 , tested on SK-MEL-1?
0.649
